Taken from paper PMC10302582.

- System: HEK-293 (human embryonic kidney cells)
- ASSAY_REMARKS: MTT cell proliferation assay, HEK-293
- Type: cell-based
- TEST_SETTINGS: HEK293, 48 h treatment
A collection of molecules and their measured IC50
# output: bare number, implied unit µM

Example molecules with recorded IC50:
Query :: Returns the measured IC50 for the input molecule. Input: COc1ccc(CCCc2cccc(NC(=O)Nc3cccc(Br)c3)c2)cc1 [C.10]
Result :: 9

Query :: Returns the measured IC50 for the input molecule. Input: COc1ccc(CCCc2cccc(NC(=O)Nc3ccccc3Br)c2)cc1 [C.11]
Result :: 27

Query :: Returns the measured IC50 for the input molecule. Input: COc1ccc(CCCc2cccc(NC(=O)Nc3ccc(Br)cc3)c2)cc1 [C.9]
Result :: 2.1

Query :: Returns the measured IC50 for the input molecule. Input: Cc1c(COc2ccc(CN3CCCCC3C(=O)O)cc2Br)cccc1-c1ccccc1 (stereo not shown) [BMS-8, reference compound]
Result :: 60

Query :: Returns the measured IC50 for the input molecule. Input: COc1ccc(CCCc2cccc(NC(=O)Nc3ccc(Cl)cc3)c2)cc1 [C.6]
Result :: 4

Next item in the queue.
Query :: Returns the measured IC50 for the input molecule. Input: COc1ccc(CCCc2cccc(NC(=O)Nc3cccc(OC)c3)c2)cc1 [C.13]
Result :: 15

---

- System: human microvessel endothelial cells (HMEC-1)
- ASSAY_REMARKS: MTT cell proliferation assay, HMEC-1
- Format: cell-based
- TEST_SETTINGS: Homo sapiens, HMEC-1, 48 h, 48 h treatment
- Excerpt: The action on cell proliferation caused by our developed compounds was studied using an MTT assay using the human tumor cell lines of HT-29 (colon adenocarcinoma) and A-549 (pulmonary adenocarcinoma), as well as toward the non-tumor cell line HEK-293 (human embryonic kidney cells), Jurkat T-cells and human microvessel endothelial cells (HMEC-1). […]
EXPERIMENTAL_READOUT: IC50

Query :: Returns the measured IC50 for the input compound. Input: `COc1ccc(CCCc2cccc(NC(=O)Nc3ccccc3Br)c2)cc1`
Result :: ~20 µM

Query :: Returns the measured IC50 for the input compound. Input: `COc1ccc(CCCc2cccc(NC(=O)Nc3ccccc3OC)c2)cc1`
Result :: > 100 µM

Query :: Returns the measured IC50 for the input compound. Input: `COc1ccc(CCCc2cccc(NC(=O)Nc3ccc(Cl)cc3)c2)cc1`
Result :: > 100 µM

Query :: Returns the measured IC50 for the input compound. Input: `COc1ccc(CCCc2cccc(NC(=O)Nc3cccc(Br)c3)c2)cc1`
Result :: ~20 µM

Query :: Returns the measured IC50 for the input compound. Input: `COc1ccc(CCCc2cccc(NC(=O)Nc3ccccc3)c2)cc1`
Result :: > 100 µM

Query :: Returns the measured IC50 for the input compound. Input: `COc1ccc(CCCc2cccc(NC(=O)Nc3ccccc3Cl)c2)cc1`
Result :: > 100 µM

Query :: Returns the measured IC50 for the input compound. Input: `COc1ccc(CCCc2cccc(NC(=O)Nc3ccc(OC)cc3)c2)cc1`
Result :: > 100 µM

Query :: Returns the measured IC50 for the input compound. Input: CNC(=O)c1cc(Oc2ccc(NC(=O)Nc3ccc(Cl)c(C(F)(F)F)c3)cc2)ccn1 [Sorafenib, sorafenib, reference compound]
Result :: 34 µM

---
Query :: Returns the measured IC50 for the input compound. Input: `COc1ccc(CCCc2cccc(NC(=O)Nc3cccc(OC)c3)c2)cc1`
Result :: ~20 µM

---

- Tested on: human microvessel endothelial cells (HMEC-1)
- ASSAY_REMARKS: MTT cell proliferation assay, HMEC-1
- Format: cell-based
- TEST_SETTINGS: Homo sapiens, HMEC-1, 48 h, 48 h treatment
- Excerpt: The action on cell proliferation caused by our developed compounds was studied using an MTT assay using the human tumor cell lines of HT-29 (colon adenocarcinoma) and A-549 (pulmonary adenocarcinoma), as well as toward the non-tumor cell line HEK-293 (human embryonic kidney cells), Jurkat T-cells and human microvessel endothelial cells (HMEC-1). […]
EXPERIMENTAL_READOUT: IC50

Example compounds with recorded IC50:
Query :: Returns the measured IC50 for the input compound. Input: `COc1ccc(CCCc2cccc(NC(=O)Nc3cccc(Cl)c3)c2)cc1`
Result :: ~20 µM

Query :: Returns the measured IC50 for the input compound. Input: `COc1ccc(CCCc2cccc(NC(=O)Nc3ccccc3F)c2)cc1`
Result :: > 100 µM

Query :: Returns the measured IC50 for the input compound. Input: `COc1ccc(CCCc2cccc(NC(=O)Nc3ccc(Br)cc3)c2)cc1`
Result :: > 100 µM

Query :: Returns the measured IC50 for the input compound. Input: `COc1ccc(CCCc2cccc(NC(=O)Nc3ccc(F)cc3)c2)cc1`
Result :: > 100 µM

Next item in the queue.
Query :: Returns the measured IC50 for the input compound. Input: `COc1ccc(CCCc2cccc(NC(=O)Nc3cccc(F)c3)c2)cc1`
Result :: > 100 µM

---

- System: HEK-293 (human embryonic kidney cells)
- ASSAY_REMARKS: MTT cell proliferation assay, HEK-293
- Assay type: cell-based
- TEST_SETTINGS: HEK293, 48 h treatment
EXPERIMENTAL_READOUT: IC50 (µM)
# output: bare number, implied unit µM

Example compounds with recorded IC50:
Query :: Returns the measured IC50 for the input compound. Input: `COc1ccc(CCCc2cccc(NC(=O)Nc3ccccc3Cl)c2)cc1`
Result :: 37

Query :: Returns the measured IC50 for the input compound. Input: CNC(=O)c1cc(Oc2ccc(NC(=O)Nc3ccc(Cl)c(C(F)(F)F)c3)cc2)ccn1 [Sorafenib, sorafenib, reference compound]
Result :: 5

Query :: Returns the measured IC50 for the input compound. Input: `COc1ccc(CCCc2cccc(NC(=O)Nc3ccccc3)c2)cc1`
Result :: 12

Query :: Returns the measured IC50 for the input compound. Input: `COc1ccc(CCCc2cccc(NC(=O)Nc3ccccc3F)c2)cc1`
Result :: 24

Query :: Returns the measured IC50 for the input compound. Input: `COc1ccc(CCCc2cccc(NC(=O)Nc3cccc(Cl)c3)c2)cc1`
Result :: 14

Next item in the queue.
Query :: Returns the measured IC50 for the input compound. Input: `COc1ccc(CCCc2cccc(NC(=O)Nc3cccc(F)c3)c2)cc1`
Result :: 22

---

- TARGET_OR_TEST_SYSTEM: PD-L1 (Homo sapiens)
- Construct: assess the effect of our new ureas on these two proteins only on the HT-29 cancer cell line through the use of flow cytometry; endogenous in cells; host or cells: HT-29
- ASSAY_REMARKS: PD-L1 relative quantification by flow cytometry in HT-29 cells
- Assay type: cell-based
- TEST_SETTINGS: HT-29, total PD-L1; dose not stated
EXPERIMENTAL_READOUT: inhibition rate of PD-L1 (%)
# output: bare number, implied unit %

Query :: Returns the measured inhibition rate of PD-L1 for the input compound. Input: `COc1ccc(CCCc2cccc(NC(=O)Nc3ccc(F)cc3)c2)cc1`
Result :: 30

Query :: Returns the measured inhibition rate of PD-L1 for the input compound. Input: `COc1ccc(CCCc2cccc(NC(=O)Nc3ccccc3OC)c2)cc1`
Result :: 50

Next item in the queue.
Query :: Returns the measured inhibition rate of PD-L1 for the input compound. Input: `COc1ccc(CCCc2cccc(NC(=O)Oc3ccccc3)c2)cc1`
Result :: 30

---

A collection of molecules and their measured total PD-L1 (%) expression
- TARGET_OR_TEST_SYSTEM: PD-L1 (Homo sapiens, UniProt Q9NZQ7)
- Construct: assess the effect of our new ureas on these two proteins only on the HT-29 cancer cell line through the use of flow cytometry; endogenous in cells; host or cells: HT-29
- Sequence (Q9NZQ7 19-290): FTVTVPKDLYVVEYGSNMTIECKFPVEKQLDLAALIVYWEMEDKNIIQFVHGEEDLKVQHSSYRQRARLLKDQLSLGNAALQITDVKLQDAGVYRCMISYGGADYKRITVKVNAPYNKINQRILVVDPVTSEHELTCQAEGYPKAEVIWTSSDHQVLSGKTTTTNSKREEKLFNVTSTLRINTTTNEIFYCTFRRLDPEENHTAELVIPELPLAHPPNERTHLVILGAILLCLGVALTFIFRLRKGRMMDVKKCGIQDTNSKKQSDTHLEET
- ASSAY_REMARKS: PD-L1 relative quantification by flow cytometry in HT-29 cells
- Format: cell-based
- TEST_SETTINGS: HT-29 cells, 100 μM, 24 h, relative to DMSO control = 100
- Protocol: The cells were incubated for a period of time of one day with doses of each of the selected compounds at two different doses: 20 and 100 µM concentrations. The effects of the compounds on the target in the cancer cell lines compounds were tested using 20 and 100 µM doses. For that, 10^5 cells per well were seeded on a 12-well plate for 24 h with the corresponding dose of the tested compound in a total volume of 500 μL of cell media. […]

Example molecules with recorded total PD-L1 (%) expression:
Query :: Returns the measured total PD-L1 (%) expression for the input molecule. Input: COc1ccc(CCCc2cccc(NC(=O)Nc3ccc(F)cc3)c2)cc1 [C.3]
Result :: 222 ± 69%

Query :: Returns the measured total PD-L1 (%) expression for the input molecule. Input: CNC(=O)c1cc(Oc2ccc(NC(=O)Nc3ccc(Cl)c(C(F)(F)F)c3)cc2)ccn1 [Sorafenib, sorafenib, reference compound]
Result :: 102 ± 10%

Query :: Returns the measured total PD-L1 (%) expression for the input molecule. Input: COc1ccc(CCCc2cccc(NC(=O)Nc3ccc(OC)cc3)c2)cc1 [C.12]
Result :: 96 ± 1%

---
Query :: Returns the measured total PD-L1 (%) expression for the input molecule. Input: COc1ccc(CCCc2cccc(NC(=O)Oc3ccccc3)c2)cc1 [C.1]
Result :: 91 ± 7%

Query :: Returns the measured total PD-L1 (%) expression for the input molecule. Input: COc1ccc(CCCc2cccc(NC(=O)Nc3ccccc3OC)c2)cc1 [C.14]
Result :: 145 ± 8%

Query :: Returns the measured total PD-L1 (%) expression for the input molecule. Input: Cc1c(COc2ccc(CN3CCCCC3C(=O)O)cc2Br)cccc1-c1ccccc1 (stereo not drawn) [BMS-8, reference compound]
Result :: 67 ± 20%
